biological target: His-EBNA1 (DNA binding domain of EBNA1, amino acids 459-607) (Epstein-Barr virus, UniProt P03211)
Sequence (P03211 459-607): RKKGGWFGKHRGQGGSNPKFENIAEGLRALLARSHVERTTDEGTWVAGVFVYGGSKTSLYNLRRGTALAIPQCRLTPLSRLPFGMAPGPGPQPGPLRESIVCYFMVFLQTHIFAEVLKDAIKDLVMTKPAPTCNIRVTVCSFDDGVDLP
metric-name: IC50

>  <compound>
O=C(Nc1cccc(C#Cc2cccc(C(=O)O)c2-c2ccc3cc[nH]c3c2)c1)c1cccnc1

>  <metric-name>
IC50

>  <measured-result>
1 to 10 µM

$$$$
>  <compound>
Nc1c(C#Cc2ccccc2)cccc1C(=O)O

>  <metric-name>
IC50

>  <measured-result>
10 to 100 µM

$$$$
>  <compound>
CC(=O)NCCc1c[nH]c2cc(-c3c(C#Cc4cccc(O)c4)cccc3C(=O)O)ccc12

>  <metric-name>
IC50

>  <measured-result>
1 to 10 µM

$$$$
>  <compound>
O=C(NS(=O)(=O)N1CCS(=O)(=O)CC1)c1cccc(C#Cc2ccccc2)c1-n1cccc1

>  <metric-name>
IC50

>  <measured-result>
10 to 100 µM

$$$$
>  <compound>
O=C(O)c1cccc(C#Cc2ccccc2)c1-c1ccc2cn[nH]c2c1

>  <metric-name>
IC50

>  <measured-result>
10 to 100 µM

$$$$
>  <compound>
O=C(NC1CC1)c1ccc(-c2c(C#Cc3ccccc3)cccc2C(=O)O)cc1

>  <metric-name>
IC50

>  <measured-result>
10 to 100 µM

$$$$
>  <compound>
C(#Cc1c[nH]c2ccccc12)c1cccc(-c2nnn[nH]2)c1

>  <metric-name>
IC50

>  <measured-result>
< 1 µM

$$$$
>  <compound>
O=C(O)c1cccc(C#Cc2cccc3cc[nH]c23)c1-n1cccc1

>  <metric-name>
IC50

>  <measured-result>
< 1 µM

$$$$

Challenge: Give the value of IC50 reported for the following: "CS(=O)(=O)Nc1cccc(-c2c(C#Cc3cccc(O)c3)cccc2C(=O)O)c1"
Response given: 10 to 100 µM

Challenge: Give IC50 for the following compound: "Nc1cccc(C#Cc2cccc(C(=O)O)c2-c2ccc3cc[nH]c3c2)n1"
Response given: 1 to 10 µM

---

molecular target: His-EBNA1 (DNA binding domain of EBNA1, amino acids 459-607) (Epstein-Barr virus, UniProt P03211)
Where a name gives a salt, the structure may show the parent alone.
Quick reference: IC50 of the listed items.

>  <molecule>
O=C(O)c1cccc(C#Cc2ccccc2)c1N1CCC(C(=O)O)C1 (stereo not drawn)

>  <IC50>
10 to 100 µM

$$$$
>  <molecule>
O=C(O)c1cccc(C#Cc2cscn2)c1-c1ccncc1

>  <IC50>
10 to 100 µM

$$$$
>  <molecule>
O=C(O)c1cccc(C#Cc2ccc(C(=O)N3CCNCC3)cc2)c1-c1ccc2cc[nH]c2c1

>  <IC50>
1 to 10 µM

$$$$
>  <molecule>
Cc1ccc(C)n1-c1c(C#CC2CC2)cccc1C(=O)O

>  <IC50>
1 to 10 µM

$$$$
>  <molecule>
O=C(O)c1cccc(C#Cc2ccncc2)c1-c1cc(O)cc(Cl)c1 [Entry 271, trifluoroacetate salt]

>  <IC50>
1 to 10 µM

$$$$

Challenge: Please look at this molecule and report its IC50: "CN(C)CC#Cc1cccc(C(=O)O)c1-n1cccc1"
Response given: 100 to 1000 µM

Challenge: Give me measured IC50, please, for this molecule: "Nc1c(C#Cc2cccc(O)c2)cccc1C(=O)O"
Response given: 1 to 10 µM

Challenge: Identify IC50 associated with the molecule "Nc1c(C#Cc2ccc3[nH]ccc3c2)cccc1C(=O)O"
Response given: < 1 µM

Challenge: Determine its reported IC50: O=C(O)c1cccc(C#Cc2ccncc2)c1-c1ccc2cc[nH]c2c1 [Entry 259, trifluoroacetate salt]
Response given: 1 to 10 µM

---

Here the recorded IC50 is given for each entry.
target: His-EBNA1 (DNA binding domain of EBNA1, amino acids 459-607) (Epstein-Barr virus)
Where a name gives a salt, the structure may show the parent alone.

These recorded examples may help you get a feel for the data.
>  <compound>
Cc1ccc(-c2c(C#Cc3ccncc3)cccc2C(=O)O)cc1 [Entry 260, trifluoroacetate salt]

>  <measured-result>
10 to 100 µM

$$$$
>  <compound>
CC1(C)CN(c2cccc(C#Cc3cccc(C(=O)O)c3-n3cccc3)c2)C1=O

>  <measured-result>
< 1 µM

$$$$
>  <compound>
COc1cc(OC)cc(-c2c(C#Cc3ccncc3)cccc2C(=O)O)c1 [Entry 273, trifluoroacetate salt]

>  <measured-result>
10 to 100 µM

$$$$
>  <compound>
COc1ccc(C#Cc2cccc(C(=O)O)c2-c2cnc3ccccc3c2)cc1

>  <measured-result>
10 to 100 µM

$$$$
>  <compound>
Cc1ccc(-c2c(C#Cc3ccccc3)cccc2C(=O)O)cc1

>  <measured-result>
1 to 10 µM

$$$$
>  <compound>
Cc1ccc(C)n1-c1c(C#Cc2cccc(CO)c2)cccc1C(=O)O

>  <measured-result>
10 to 100 µM

$$$$
>  <compound>
O=C(O)c1cccc(C#CCN2CCN(c3ccccc3)CC2)c1-c1ccccc1

>  <measured-result>
10 to 100 µM

$$$$
>  <compound>
O=C(O)c1cccc(C#Cc2ccccc2)c1N1CCCC1

>  <measured-result>
10 to 100 µM

$$$$
>  <compound>
Nc1c(C#Cc2cccc(CO)c2)cccc1C(=O)O

>  <measured-result>
1 to 10 µM

$$$$
>  <compound>
O=C(O)c1cccc(C#Cc2cncc(O)c2)c1-n1cccc1

>  <measured-result>
10 to 100 µM

$$$$

Attention now turns to another entry.
Challenge: Specify IC50 for "CNS(=O)(=O)c1cccc(C#Cc2cccc(C(=O)O)c2-n2cccc2)c1" , system His-EBNA1 (DNA binding domain of EBNA1, amino acids 459-607) (Epstein-Barr virus).
Response given: 1 to 10 µM

---

Below, each entry is listed alongside its reported pIC50.
target: His-EBNA1 (DNA binding domain of EBNA1, amino acids 459-607) (Epstein-Barr virus, UniProt P03211)
pIC50: −log10 of the molar value. Structures can show the parent of a compound that is named as a salt.

// below: answered compounds
>  <compound>
O=S(=O)(c1ccccc1)n1cc(C#Cc2cccc(-c3nnn[nH]3)c2)c2ccccc21

>  <metric-name>
pIC50

>  <measured-result>
> 6.00

$$$$
>  <compound>
O=C(O)c1cccc(C#Cc2ccccc2)c1-c1ccncc1 [Entry 97, trifluoroacetic acid salt]

>  <metric-name>
pIC50

>  <measured-result>
4.00 to 5.00

$$$$

Challenge: Please report the measured pIC50 for "O=C(O)c1cccc(C#Cc2ccncc2)c1-c1cn[nH]c1"
Response given: 3.00 to 4.00

Challenge: Identify the reported pIC50 for the following entry. O=C(O)c1cccc(C#Cc2ccc3[nH]ccc3c2)c1 [Entry 77, 3-[2-(1H-indol-5-yl)ethynyl]benzoic acid]
Response given: > 6.00

Challenge: Note pIC50 for the compound shown: "O=C(O)c1cccc(C#Cc2ccccc2)c1-n1cc(-c2ccccc2)nn1"
Response given: 4.00 to 5.00

Challenge: Please give the documented pIC50 of "O=C(O)c1cccc(C#Cc2ccccc2CO)c1-n1cccc1"
Response given: > 6.00

Challenge: Identify measured pIC50 corresponding to "O=C(O)c1cc(F)cc(C#Cc2ccc(F)cc2)c1-n1cccc1"
Response given: 3.00 to 4.00

Challenge: Output measured pIC50 for this item: "O=C(O)c1cccc(C#Cc2ccc3[nH]ccc3c2)c1-n1cccc1"
Response given: 5.00 to 6.00

Challenge: Please report the measured pIC50 for "O=C(O)c1cccc(C#Cc2cccc3nccn23)c1-n1cccc1"
Response given: 4.00 to 5.00

---

biological target: His-EBNA1 (DNA binding domain of EBNA1, amino acids 459-607) (Epstein-Barr virus)
Counter-ions that a name gives are not always drawn.
metric-name: IC50

Sample answers from the record:
>  <compound>
O=C(O)c1cccc(C#Cc2cn(S(=O)(=O)c3ccccc3)c3ccccc23)c1 [Entry 181]

>  <IC50>
10 to 100 µM

$$$$
>  <compound>
Cc1ccc(C#Cc2cccc(C(=O)O)c2-n2cccc2)cc1 [Entry 44]

>  <IC50>
< 1 µM

$$$$
>  <compound>
Cn1ccnc1C#Cc1cccc(C(=O)O)c1-n1cccc1 [Entry 27]

>  <IC50>
10 to 100 µM

$$$$
>  <compound>
O=C(O)c1cccc(C#Cc2ccn3ncnc3c2)c1-n1cccc1 [Entry 36]

>  <IC50>
< 1 µM

$$$$
>  <compound>
Nc1c(C#Cc2c[nH]c3ncccc23)cccc1C(=O)O [Entry 78]

>  <IC50>
< 1 µM

$$$$
>  <compound>
Cc1ccc(-c2c(C#Cc3cccc(O)c3)cccc2C(=O)O)cc1 [Entry 261]

>  <IC50>
10 to 100 µM

$$$$
>  <compound>
O=C(O)c1cccc(C#Cc2cnc3cnccn23)c1-n1cccc1 [Entry 11]

>  <IC50>
< 1 µM

$$$$
>  <compound>
O=C(O)c1cccc(C#Cc2ccncc2)c1 [Entry 93, 3-[2-(pyridin-4-yl)ethynyl]benzoic acid]

>  <IC50>
1 to 10 µM

$$$$
>  <compound>
O=C(O)c1cccc(C#Cc2ccc(F)cc2)c1-c1ccc2cc[nH]c2c1 [Entry 228]

>  <IC50>
1 to 10 µM

$$$$
>  <compound>
O=C(O)c1cccc(C#Cc2ccccc2)c1-c1ccccc1S(=O)(=O)NCCO [Entry 137]

>  <IC50>
10 to 100 µM

$$$$

Challenge: Answer with reported IC50 of O=C(O)c1cccc(C#Cc2ccncc2)c1-c1c[nH]c2ccccc12 [Entry 174]
Response given: 1 to 10 µM

Challenge: For CN(C)Cc1ccc(-c2c(C#Cc3ccccc3)cccc2C(=O)O)cc1 [Entry 207] , write its IC50.
Response given: 100 to 1000 µM

Challenge: Give IC50 for O=C(O)c1cccc(C#Cc2cnc3cnccn23)c1-c1cnc2ccccc2c1 [Entry 143]
Response given: 1 to 10 µM

Challenge: Supply reported IC50 belonging to this compound: Cc1ccc(C)n1-c1c(C#Cc2c[nH]c3ncccc23)cccc1C(=O)O [Entry 196]
Response given: 1 to 10 µM

Challenge: Give a short answer stating reported IC50 for O=C(O)c1cccc(C#Cc2ccc3c(c2)NCC3)c1-n1cccc1 [Entry 23] .
Response given: < 1 µM

Challenge: Look up and report measured IC50 for this entry: NS(=O)(=O)c1cccc(C#Cc2cccc(C(=O)O)c2-n2cccc2)c1 [Entry 4]
Response given: < 1 µM

Challenge: Read off the recorded IC50 for O=C(O)c1cccc(C#Cc2cccc3[nH]ccc23)c1-n1cccc1 [Entry 35]
Response given: < 1 µM

Challenge: Supply recorded IC50 for Cc1nc(C#Cc2cccc(C(=O)O)c2-n2cccc2)cn1C [Entry 25] here.
Response given: 10 to 100 µM

Challenge: Answer with the recorded IC50 for the compound listed here: CN(C)S(=O)(=O)c1cccc(C#Cc2cccc(C(=O)O)c2-n2cccc2)c1 [Entry 37]
Response given: < 1 µM

Challenge: Look up IC50 of O=C(O)c1cccc(C#Cc2ccncc2)c1-c1cc(O)cc(F)c1 [Entry 272, trifluoroacetate salt] and report it.
Response given: 10 to 100 µM
